Experiment: UV absorbance spectra without and with saturating cation
Assay type: physicochemical
Conditions: number is 10⁻³ x the extinction coefficient; lower limits for most compounds; no Na⁺
Entries and their log10 of Absorbance maxima -Na⁺ (extinction coefficient) values follow.
On a log10 scale: recorded Absorbance maxima -Na⁺ (extinction coefficient), unit M⁻¹ cm⁻¹.

Please review the entries below; each comes with its answer.
| Item Smiles | Endpoint Result |
| --- | --- |
| Nc1ccc(N2CCOCCOCCOCCOCC2)c(C(=O)O)c1 | 3.04 |
| COc1cc(NC(C)=O)ccc1N1CCOCCOCCN(c2ccc(NC(C)=O)cc2OC)CCOCC1 | 4.03 |
| Cc1ccc2cc(O)cc(N3CCOCCOCCN(c4cc(O)cc5ccc(C)nc45)CCOCC3)c2n1 | 3.38 |
| COc1cc2cc(-c3ncc(C(=O)O)o3)oc2cc1N1CCOCCOCCN(c2cc3oc(-c4ncc(C(=O)O)o4)cc3cc2OC)CCOCC1 | 4.40 |
| COc1cc2cc(-c3ccc(C(=O)O)c(C(=O)O)c3)oc2cc1N1CCOCCOCCN(c2cc3oc(-c4ccc(C(=O)O)c(C(=O)O)c4)cc3cc2OC)CCOCC1 | 4.66 |
| COc1cc2cc(-c3ccc(C(=O)O)cc3C(=O)O)oc2cc1N1CCOCCOCCN(c2cc3oc(-c4ccc(C(=O)O)cc4C(=O)O)cc3cc2OC)CCOCCOCC1 | 4.62 |
| COc1cc2cc(-c3ccc(C(=O)O)cc3C(=O)O)oc2cc1N1CCOCCOCCN(c2cc3oc(-c4ccc(C(=O)O)cc4C(=O)O)cc3cc2OC)CCOCC1 | 4.62 |

Form field log10 of Absorbance maxima -Na⁺ (extinction coefficient), entry COc1cc2cc(-c3ccc(C(=O)O)c(C(=O)O)c3)oc2cc1N1CCOCCOCCN(c2cc3oc(-c4ccc(C(=O)O)c(C(=O)O)c4)cc3cc2OC)CCOCCOCC1 : 4.36

---

Test: Cation titration followed by absorbance or fluorescence excitation spectra: Mg²⁺ binding
Conditions: 0.1 M tetramethylammonium chloride, 1-5 mM tris(hydroxymethyl)aminomethane, high pH; listed as SBFI; read-out: Dissociation constants (Kd) in mM for Mg²⁺
Quantity: Kd

Quick note, Kd for COc1cc2cc(-c3ccc(C(=O)O)cc3C(=O)O)oc2cc1N1CCOCCOCCN(c2cc3oc(-c4ccc(C(=O)O)cc4C(=O)O)cc3cc2OC)CCOCC1 landed at ~60 mM

---

Form field: Absorbance maxima -Na⁺ (wavelength) (one value per entry).
Experiment: UV absorbance spectra without and with saturating cation
Type: physicochemical
Details: 100 mM tetramethylammonium chloride plus 1-5 mM Tris, no Na⁺
Give the number; nanometers is assumed, so skip it.

Example results:
| Item Smiles | Absorbance maxima -Na⁺ (wavelength) / nanometers |
| --- | --- |
| Cc1ccc2cc(O)cc(N3CCOCCOCCN(c4cc(O)cc5ccc(C)nc45)CCOCC3)c2n1 | 363 |
| COc1cc2cc(-c3ccc(C(=O)O)c(C(=O)O)c3)oc2cc1N1CCOCCOCCN(c2cc3oc(-c4ccc(C(=O)O)c(C(=O)O)c4)cc3cc2OC)CCOCCOCC1 | 344 |
| COc1cc(NC(C)=O)ccc1N1CCOCCOCCN(c2ccc(NC(C)=O)cc2OC)CCOCC1 | 261 |
| COc1cc2cc(-c3ccc(C(=O)O)cc3C(=O)O)oc2cc1N1CCOCCOCCN(c2cc3oc(-c4ccc(C(=O)O)cc4C(=O)O)cc3cc2OC)CCOCC1 | 346 |

# compound COc1cc2cc(-c3ccc(C(=O)O)cc3C(=O)O)oc2cc1N1CCOCCOCCN(c2cc3oc(-c4ccc(C(=O)O)cc4C(=O)O)cc3cc2OC)CCOCCOCC1 ; its Absorbance maxima -Na⁺ (wavelength) = 350

Sure, the documented Absorbance maxima -Na⁺ (wavelength) for Nc1ccc(N2CCOCCOCCOCCOCC2)c(C(=O)O)c1 is 295

# Absorbance maxima -Na⁺ (wavelength) (compound: COc1cc2cc(-c3ccc(C(=O)O)c(C(=O)O)c3)oc2cc1N1CCOCCOCCN(c2cc3oc(-c4ccc(C(=O)O)c(C(=O)O)c4)cc3cc2OC)CCOCC1 ) is 342

Value of measured Absorbance maxima -Na⁺ (wavelength) for the entry COc1cc2cc(-c3ncc(C(=O)O)o3)oc2cc1N1CCOCCOCCN(c2cc3oc(-c4ncc(C(=O)O)o4)cc3cc2OC)CCOCC1 : 355

---

Experiment: physchem
Conditions: 126 mm kcl, 14 mm nacl
Quantity: pKa
I only need the number, thanks.

For record COc1cc2cc(-c3ncc(C(=O)O)o3)oc2cc1N1CCOCCOCCN(c2cc3oc(-c4ncc(C(=O)O)o4)cc3cc2OC)CCOCC1 the listed pKa is 4.82

COc1cc2cc(-c3ccc(C(=O)O)c(C(=O)O)c3)oc2cc1N1CCOCCOCCN(c2cc3oc(-c4ccc(C(=O)O)c(C(=O)O)c4)cc3cc2OC)CCOCC1 has a reported pKa of 6.4

pKa recorded for this compound, COc1cc2cc(-c3ccc(C(=O)O)cc3C(=O)O)oc2cc1N1CCOCCOCCN(c2cc3oc(-c4ccc(C(=O)O)cc4C(=O)O)cc3cc2OC)CCOCC1 , is 6.09

The recorded pKa for COc1cc2cc(-c3ccc(C(=O)O)c(C(=O)O)c3)oc2cc1N1CCOCCOCCN(c2cc3oc(-c4ccc(C(=O)O)c(C(=O)O)c4)cc3cc2OC)CCOCCOCC1 is 6.68

---

Experiment: physchem
Quantity: pKa
Would you mind answering with just the numeric figure?

Reported pKa for COc1cc2cc(-c3ccc(C(=O)O)cc3C(=O)O)oc2cc1N1CCOCCOCCN(c2cc3oc(-c4ccc(C(=O)O)cc4C(=O)O)cc3cc2OC)CCOCCOCC1 [Compound 3PP] was 5.78

---

As shown below, each of these compounds has a reported Kd value.
Experiment: Cation titration followed by absorbance or fluorescence excitation spectra: Na⁺ binding
Conditions: summary statement, conditions not specified; read-out: dissociation constant (Na⁺), range achieved

| Compound | Kd |
| --- | --- |
| COc1cc2cc(-c3ccc(C(=O)O)c(C(=O)O)c3)oc2cc1N1CCOCCOCCN(c2cc3oc(-c4ccc(C(=O)O)c(C(=O)O)c4)cc3cc2OC)CCOCC1 [Compound 2NN] | 5 to 20 mM |

Next, consider the following compound.
The reported Kd of the compound COc1cc2cc(-c3ccc(C(=O)O)cc3C(=O)O)oc2cc1N1CCOCCOCCN(c2cc3oc(-c4ccc(C(=O)O)cc4C(=O)O)cc3cc2OC)CCOCC1 [Compound 2PP] was 5 to 20 mM

---

Recorded Quantum efficiency +Na⁺ values for a group of compounds are listed next.
Assay: Fluorescence excitation/emission spectra and quantum efficiency
Type: physicochemical
Conditions: saturating Na⁺; relative to quinine bisulfate in 1 N H₂SO₄ (0.55)

| Compound | Quantum efficiency +Na⁺ |
| --- | --- |
| O=C(O)CCC(=O)Nc1ccc(N2CCOCCOCCN(c3ccc(NC(=O)CCC(=O)O)c4cc5ccccc5nc34)CCOCC2)c2nc3ccccc3cc12 [Compound 2II] | <.001 |
| COc1cc2cc(-c3ccc(C(=O)O)c(C(=O)O)c3)oc2cc1N1CCOCCOCCN(c2cc3oc(-c4ccc(C(=O)O)c(C(=O)O)c4)cc3cc2OC)CCOCC1 [Compound 2NN] | .091 |
| Cc1ccc2c(n1)c(N1CCOCCOCCN(c3cc4oc(-c5ccc(C(=O)O)c(C(=O)O)c5)cc4c4ccc(C)nc34)CCOCC1)cc1oc(-c3ccc(C(=O)O)c(C(=O)O)c3)cc12 [Compound 2GG] | .01 |

We now examine a further compound.
The compound listed as CC(=O)Nc1ccc(N2CCOCCOCCN(c3ccc(NC(C)=O)c4ccc(C)nc34)CCOCC2)c2nc(C)ccc12 [Compound 2DD] has a reported Quantum efficiency +Na⁺ of .01

---

# reported Emission maxima +Na⁺; entries follow
Test: Fluorescence excitation/emission spectra and quantum efficiency
Assay type: physicochemical
Settings: saturating NaCl; not corrected for detector sensitivity
Please give a number only; it is taken to be in nanometers.

Answered cases to consult:
| Compound | Endpoint Result |
| --- | --- |
| O=C(O)CCC(=O)Nc1ccc(N2CCOCCOCCN(c3ccc(NC(=O)CCC(=O)O)c4cc5ccccc5nc34)CCOCC2)c2nc3ccccc3cc12 [Compound 2II] | 625 |
| COc1cc2cc(-c3ccc(C(=O)O)cc3C(=O)O)oc2cc1N1CCOCCOCCN(c2cc3oc(-c4ccc(C(=O)O)cc4C(=O)O)cc3cc2OC)CCOCC1 [Compound 2PP] | 525 |
| Cc1ccc2cc(O)cc(N3CCOCCOCCN(c4cc(O)cc5ccc(C)nc45)CCOCC3)c2n1 [Compound 2FF] | 466 |
| COc1cc2cc(-c3ccc(C(=O)O)c(C(=O)O)c3)oc2cc1N1CCOCCOCCN(c2cc3oc(-c4ccc(C(=O)O)c(C(=O)O)c4)cc3cc2OC)CCOCC1 [Compound 2NN] | 505 |
| CC(=O)Nc1ccc(N2CCOCCOCCN(c3ccc(NC(C)=O)c4ccc(C)nc34)CCOCC2)c2nc(C)ccc12 [Compound 2DD] | 510 |
| COc1cc2cc(-c3ncc(C(=O)O)o3)oc2cc1N1CCOCCOCCN(c2cc3oc(-c4ncc(C(=O)O)o4)cc3cc2OC)CCOCC1 [Compound 2OO] | 500 |

Let us examine a further case.
Lookup result for Cc1ccc2c(n1)c(N1CCOCCOCCN(c3cc4oc(-c5ccc(C(=O)O)c(C(=O)O)c5)cc4c4ccc(C)nc34)CCOCC1)cc1oc(-c3ccc(C(=O)O)c(C(=O)O)c3)cc12 [Compound 2GG] ; measured Emission maxima +Na⁺: 525
